Molecular target: Maternal embryonic leucine zipper kinase (Homo sapiens); further: in the data inactive means no Kd found up to 30 µM
Sequence (Q14680 whole entry): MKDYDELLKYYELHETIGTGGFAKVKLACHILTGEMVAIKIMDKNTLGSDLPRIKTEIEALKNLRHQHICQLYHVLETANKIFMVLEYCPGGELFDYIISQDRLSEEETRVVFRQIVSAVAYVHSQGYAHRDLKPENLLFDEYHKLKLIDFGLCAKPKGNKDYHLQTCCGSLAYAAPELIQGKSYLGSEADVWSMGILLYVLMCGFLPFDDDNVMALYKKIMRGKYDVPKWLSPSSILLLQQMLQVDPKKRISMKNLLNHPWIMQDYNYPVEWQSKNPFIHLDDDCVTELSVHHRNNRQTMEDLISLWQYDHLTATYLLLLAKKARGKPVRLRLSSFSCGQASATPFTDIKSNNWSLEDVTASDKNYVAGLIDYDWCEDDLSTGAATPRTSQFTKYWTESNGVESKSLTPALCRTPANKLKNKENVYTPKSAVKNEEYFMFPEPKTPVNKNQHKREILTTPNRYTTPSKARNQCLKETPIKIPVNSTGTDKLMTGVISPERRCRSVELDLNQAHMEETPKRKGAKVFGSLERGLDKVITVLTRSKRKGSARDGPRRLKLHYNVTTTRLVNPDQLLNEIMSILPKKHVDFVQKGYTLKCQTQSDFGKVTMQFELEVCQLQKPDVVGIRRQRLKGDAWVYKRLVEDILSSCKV
Activity calls are given as the source filed them.
One label from this list, please: 1.0 (active), 0.0 (inactive)

| MOLECULE | TGT | LABEL_VALUE |
| --- | --- | --- |
| NC(=O)Nc1cc(-c2cccc(F)c2)sc1C(=O)N[C@H]1CCCNC1 [AZD-7762] | Maternal embryonic leucine zipper kinase (Homo sapiens) | 1.0 |
| CCn1cc(-c2ccnc3[nH]c(-c4cccc(CN(C)C)c4)cc23)c(-c2ccc(NC(=O)N(C)C)cc2)n1 [GSK-1070916] | Maternal embryonic leucine zipper kinase (Homo sapiens) | 0.0 |
| Cn1cc(-c2cnn3c(N)c(Br)c([C@@H]4CCCNC4)nc23)cn1 [SCH-900776] | Maternal embryonic leucine zipper kinase (Homo sapiens) | 1.0 |
| Cc1nc2cc(-n3ncc(C(=O)c4cc5ccccc5[nH]4)c3N)ccc2[nH]1 [FGFR INHIBITOR DEBIO 1347] | Maternal embryonic leucine zipper kinase (Homo sapiens) | 0.0 |
| CCNC(=O)C#Cc1ccc2c(c1)NC(=O)/C2=C(\Nc1ccc(CN(C)C)cc1)c1ccccc1 | Maternal embryonic leucine zipper kinase (Homo sapiens) | 1.0 |

Challenge: Identify the outcome logged in this assay for the molecule shown: O=C(Cc1ccc(-c2ccc(OCCN3CCOCC3)cc2)cn1)NCc1ccccc1 [TIRBANIBULIN]
Response given: 0.0

Challenge: Identify the outcome logged in this assay for the molecule shown: C[C@@H](NC(=O)c1ncnc(N)c1Cl)c1ncc(C(=O)Nc2cc(C(F)(F)F)c(Cl)cn2)s1 [TOVORAFENIB]
Response given: 0.0

Challenge: Identify the outcome logged in this assay for the molecule shown: Cn1cc(-c2cnc3ccc4ccc(CS(=O)(=O)NCc5ccccn5)cc4c(=O)c3c2)cn1 [MK-8033]
Response given: 0.0

###

Biological target: Proto-oncogene tyrosine-protein kinase receptor Ret (Homo sapiens); further: in the data inactive means no Kd found up to 30 µM
Sequence (P07949 whole entry): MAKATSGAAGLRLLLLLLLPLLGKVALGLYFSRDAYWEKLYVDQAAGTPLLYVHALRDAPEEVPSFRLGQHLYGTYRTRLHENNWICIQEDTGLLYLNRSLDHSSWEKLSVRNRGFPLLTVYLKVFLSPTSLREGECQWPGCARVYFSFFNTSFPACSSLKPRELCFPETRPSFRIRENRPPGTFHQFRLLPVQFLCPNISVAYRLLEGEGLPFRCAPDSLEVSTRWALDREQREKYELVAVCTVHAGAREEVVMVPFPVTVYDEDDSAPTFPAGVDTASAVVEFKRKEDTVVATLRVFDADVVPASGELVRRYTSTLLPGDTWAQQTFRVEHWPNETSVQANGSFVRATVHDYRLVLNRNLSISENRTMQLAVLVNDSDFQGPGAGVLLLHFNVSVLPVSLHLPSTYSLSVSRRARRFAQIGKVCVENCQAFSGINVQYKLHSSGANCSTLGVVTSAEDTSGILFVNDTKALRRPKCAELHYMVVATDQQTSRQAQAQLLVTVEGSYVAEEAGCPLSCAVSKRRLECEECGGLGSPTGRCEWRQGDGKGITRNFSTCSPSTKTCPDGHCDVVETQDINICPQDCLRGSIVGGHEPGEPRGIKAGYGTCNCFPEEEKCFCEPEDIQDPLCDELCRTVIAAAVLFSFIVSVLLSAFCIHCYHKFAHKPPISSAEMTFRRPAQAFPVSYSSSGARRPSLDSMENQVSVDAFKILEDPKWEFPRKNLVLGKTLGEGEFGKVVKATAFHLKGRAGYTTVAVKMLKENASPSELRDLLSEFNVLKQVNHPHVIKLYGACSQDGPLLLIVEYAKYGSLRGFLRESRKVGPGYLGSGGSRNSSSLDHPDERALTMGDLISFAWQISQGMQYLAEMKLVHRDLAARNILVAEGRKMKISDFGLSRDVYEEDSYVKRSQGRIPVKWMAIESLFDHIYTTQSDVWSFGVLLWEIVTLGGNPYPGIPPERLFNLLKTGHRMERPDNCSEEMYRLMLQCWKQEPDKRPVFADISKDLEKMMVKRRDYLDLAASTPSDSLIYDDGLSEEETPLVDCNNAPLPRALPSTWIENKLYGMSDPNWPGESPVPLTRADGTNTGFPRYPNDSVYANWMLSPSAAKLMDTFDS
Activity calls are given as the source filed them.
One label from this list, please: active, inactive

Answered examples (6):
| MOLECULE | LABEL_VALUE |
| --- | --- |
| NC1(c2ccc(-c3nc4ccn5c(=O)[nH]nc5c4cc3-c3ccccc3)cc2)CCC1 | inactive |
| Cc1cccc(-c2nn3c(c2-c2ccnc4ccc(C(N)=O)cc24)CCC3)n1 | inactive |
| CNC(=O)c1nn(C)c2c1C(C)(C)Cc1cnc(Nc3ccc(N4CCN(C)CC4)cc3)nc1-2 | active |
| CO[C@H]1C[C@@H]2CC[C@@H](C)[C@@](O)(O2)C(=O)C(=O)N2CCCC[C@H]2C(=O)O[C@H]([C@H](C)C[C@@H]2CC[C@@H](OC(=O)C(C)(CO)CO)[C@H](OC)C2)CC(=O)[C@H](C)/C=C(\C)[C@@H](O)[C@@H](OC)C(=O)[C@H](C)C[C@H](C)/C=C/C=C/C=C/1C | inactive |
| COc1c(OCCCN2CCOCC2)ccc2c1N=C(NC(=O)c1cnc(N)nc1)N1CCN=C21 | inactive |
| Cn1cnc2c(F)c(Nc3ccc(Br)cc3F)c(C(=O)NOCCO)cc21 | inactive |

# input for lookup
Challenge: Identify the outcome logged in this assay for the molecule shown: O=c1[nH]ccc2cc(OC3CCNCC3)ccc12 [SAR-407899 FREE BASE]
Response given: inactive

###

Molecular target: Receptor-type tyrosine-protein kinase FLT3 (Homo sapiens); further: in the data inactive means no Kd found up to 30 µM
Sequence (P36888 whole entry): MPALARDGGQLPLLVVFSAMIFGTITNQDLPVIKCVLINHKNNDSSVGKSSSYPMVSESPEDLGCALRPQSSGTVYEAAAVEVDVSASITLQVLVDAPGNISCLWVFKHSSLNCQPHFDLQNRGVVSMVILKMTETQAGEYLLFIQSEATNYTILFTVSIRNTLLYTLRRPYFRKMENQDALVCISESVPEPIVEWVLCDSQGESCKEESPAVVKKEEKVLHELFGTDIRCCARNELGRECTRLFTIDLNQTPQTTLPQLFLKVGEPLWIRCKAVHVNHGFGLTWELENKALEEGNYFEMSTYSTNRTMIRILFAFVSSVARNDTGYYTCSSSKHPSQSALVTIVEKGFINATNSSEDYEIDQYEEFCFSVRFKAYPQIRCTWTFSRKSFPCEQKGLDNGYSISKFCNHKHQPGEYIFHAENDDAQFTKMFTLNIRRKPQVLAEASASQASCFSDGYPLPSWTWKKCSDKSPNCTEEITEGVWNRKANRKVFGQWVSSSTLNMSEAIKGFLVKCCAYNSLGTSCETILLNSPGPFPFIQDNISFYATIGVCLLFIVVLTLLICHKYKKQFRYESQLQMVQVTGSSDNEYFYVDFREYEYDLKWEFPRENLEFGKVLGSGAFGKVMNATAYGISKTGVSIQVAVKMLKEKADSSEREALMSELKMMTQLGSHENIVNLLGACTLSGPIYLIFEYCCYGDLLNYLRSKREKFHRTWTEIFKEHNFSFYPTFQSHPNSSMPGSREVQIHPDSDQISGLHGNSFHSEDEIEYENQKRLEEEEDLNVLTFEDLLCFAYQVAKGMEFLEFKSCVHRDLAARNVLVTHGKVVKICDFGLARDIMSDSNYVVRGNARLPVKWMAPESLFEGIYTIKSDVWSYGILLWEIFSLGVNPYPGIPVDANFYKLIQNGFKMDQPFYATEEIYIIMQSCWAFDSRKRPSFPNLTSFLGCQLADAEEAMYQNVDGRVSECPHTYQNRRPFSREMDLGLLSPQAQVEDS
Activity calls are given as the source filed them.
One label from this list, please: YES (active), NO (inactive)

Answered examples (8):
| COMPOUND | LABEL_VALUE |
| --- | --- |
| NC1(c2ccc(-c3nc4ccn5c(=O)[nH]nc5c4cc3-c3ccccc3)cc2)CCC1 | NO |
| Cc1csc(-c2nnc(Nc3ccc(Oc4ncccc4-c4ccnc(N)n4)cc3)c3ccccc23)c1 | NO |
| C#Cc1cccc(Nc2ncnc3cc(OC)c(OCCCCCCC(=O)NO)cc23)c1 | NO |
| O=C1NC(=O)[C@@H](c2cn3c4c(cccc24)CCC3)[C@@H]1c1c[nH]c2ccccc12 [TIVANTINIB] | NO |
| CCn1c(C(=O)N(C2CC2)C2CC2)cc2c3c(ncn3C)c(Nc3cc(C)n(C)n3)nc21 | NO |
| Cc1cccc(-c2nn3c(c2-c2ccnc4ccc(C(N)=O)cc24)CCC3)n1 | NO |
| COc1c(OCCCN2CCOCC2)ccc2c1N=C(NC(=O)c1cnc(N)nc1)N1CCN=C21 | NO |
| C[C@@H](Oc1cc(C(=O)Nc2ccc(C(=O)N3CCN(C)CC3)cc2)nnc1N)c1c(Cl)ccc(F)c1Cl | NO |

Challenge: Identify the outcome logged in this assay for the compound shown: `COCC(=O)NC/C=C/c1ccc2ncnc(Nc3ccc(Oc4ccc(C)nc4)c(C)c3)c2c1`
Response given: NO

Challenge: Identify the outcome logged in this assay for the compound shown: `CC(=O)c1cnc2ccc(-c3cc(Cl)c(O)c(Cl)c3)nc2c1N[C@H]1CC[C@H](CN(C)C)CC1`
Response given: NO

###

Target: Tyrosine-protein kinase Fer (Homo sapiens, UniProt P16591); further: in the data inactive means no Kd found up to 30 µM
Sequence (P16591 whole entry): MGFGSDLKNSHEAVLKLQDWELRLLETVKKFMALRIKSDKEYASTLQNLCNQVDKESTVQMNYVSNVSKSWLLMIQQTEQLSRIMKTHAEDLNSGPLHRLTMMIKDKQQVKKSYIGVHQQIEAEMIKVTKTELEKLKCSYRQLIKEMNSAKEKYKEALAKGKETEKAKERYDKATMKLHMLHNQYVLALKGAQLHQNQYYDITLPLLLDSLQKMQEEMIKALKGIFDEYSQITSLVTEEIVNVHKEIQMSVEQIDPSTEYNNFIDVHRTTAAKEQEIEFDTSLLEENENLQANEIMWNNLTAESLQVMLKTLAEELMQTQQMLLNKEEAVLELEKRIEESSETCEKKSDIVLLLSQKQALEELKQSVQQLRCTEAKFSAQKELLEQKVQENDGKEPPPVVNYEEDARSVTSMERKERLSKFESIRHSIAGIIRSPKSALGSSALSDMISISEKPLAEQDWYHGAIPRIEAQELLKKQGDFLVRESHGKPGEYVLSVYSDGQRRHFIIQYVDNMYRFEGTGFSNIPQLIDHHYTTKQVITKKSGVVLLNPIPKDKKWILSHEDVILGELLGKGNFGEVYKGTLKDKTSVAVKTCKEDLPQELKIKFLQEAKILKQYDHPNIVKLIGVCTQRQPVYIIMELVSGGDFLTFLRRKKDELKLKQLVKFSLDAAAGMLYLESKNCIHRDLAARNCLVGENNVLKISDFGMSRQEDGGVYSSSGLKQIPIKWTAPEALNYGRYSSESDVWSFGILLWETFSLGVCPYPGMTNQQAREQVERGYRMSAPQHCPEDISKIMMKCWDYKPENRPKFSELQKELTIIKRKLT
Activity calls are given as the source filed them.
One label from this list, please: yes for active, no for inactive

Answered examples (6):
| MOLECULE | LABEL_VALUE |
| --- | --- |
| N#CC1(c2ccc(NC(=O)c3cccnc3NCc3ccncc3)cc2)CCCC1 | no |
| COCC(=O)NC/C=C/c1ccc2ncnc(Nc3ccc(Oc4ccc(C)nc4)c(C)c3)c2c1 | no |
| C[C@H]1CNCCCN1S(=O)(=O)c1cccc2cncc(F)c12 | no |
| CNC(=O)c1cccc2cc(Oc3ccnc4cc(OCC5(N)CC5)c(OC)cc34)ccc12 | no |
| CCn1c(C(=O)N(C2CC2)C2CC2)cc2c3c(ncn3C)c(Nc3cc(C)n(C)n3)nc21 | no |
| CO[C@H]1C[C@@H]2CC[C@@H](C)[C@@](O)(O2)C(=O)C(=O)N2CCCC[C@H]2C(=O)O[C@H]([C@H](C)C[C@@H]2CC[C@@H](O)[C@H](OC)C2)CC(=O)[C@H](C)/C=C(\C)[C@@H](O)[C@@H](OC)C(=O)[C@H](C)C[C@H](C)/C=C/C=C/C=C/1C | no |

Challenge: Identify the outcome logged in this assay for the molecule shown: `C[C@@H](NC(=O)c1ncnc(N)c1Cl)c1ncc(C(=O)Nc2cc(C(F)(F)F)c(Cl)cn2)s1`
Response given: no

Challenge: Identify the outcome logged in this assay for the molecule shown: `CO[C@H]1C[C@@H]2CC[C@@H](C)[C@@](O)(O2)C(=O)C(=O)N2CCCC[C@H]2C(=O)O[C@H]([C@H](C)C[C@@H]2CC[C@@H](OP(C)(C)=O)[C@H](OC)C2)CC(=O)[C@H](C)/C=C(\C)[C@@H](O)[C@@H](OC)C(=O)[C@H](C)C[C@H](C)/C=C/C=C/C=C/1C`
Response given: no

Challenge: Identify the outcome logged in this assay for the molecule shown: `CCn1cc(-c2ccnc3[nH]c(-c4cccc(CN(C)C)c4)cc23)c(-c2ccc(NC(=O)N(C)C)cc2)n1`
Response given: no

Challenge: Identify the outcome logged in this assay for the molecule shown: `CO[C@H]1C[C@@H]2CC[C@@H](C)[C@@](O)(O2)C(=O)C(=O)N2CCCC[C@H]2C(=O)O[C@H]([C@H](C)C[C@@H]2CC[C@@H](OC(=O)C(C)(CO)CO)[C@H](OC)C2)CC(=O)[C@H](C)/C=C(\C)[C@@H](O)[C@@H](OC)C(=O)[C@H](C)C[C@H](C)/C=C/C=C/C=C/1C`
Response given: no

Challenge: Identify the outcome logged in this assay for the molecule shown: `Cc1cc(Nc2ncc(Cl)c(Nc3ccccc3S(=O)(=O)C(C)C)n2)c(OC(C)C)cc1C1CCNCC1`
Response given: yes

Challenge: Identify the outcome logged in this assay for the molecule shown: `Cn1cc(-c2cnc3ccc4ccc(CS(=O)(=O)NCc5ccccn5)cc4c(=O)c3c2)cn1`
Response given: no

Challenge: Identify the outcome logged in this assay for the molecule shown: `CN1CCN(CCOc2cc(OC3CCOCC3)c3c(Nc4c(Cl)ccc5c4OCO5)ncnc3c2)CC1`
Response given: no

Challenge: Identify the outcome logged in this assay for the molecule shown: `Cc1cccc(-c2nn3c(c2-c2ccnc4ccc(C(N)=O)cc24)CCC3)n1`
Response given: no
